Cited source: ChEMBL document CHEMBL3885861

- Organism: Rattus norvegicus
- experiment: Open TG-GATES - Regimen: Daily Repeat
- Format: toxicity, organism-based, Sprague-Dawley
- Parameters: regimen Daily Repeat, gender Male, age 6 weeks
- cond: in vivo, po, 1000 mg/kg, […], tissue Blood, route gavage, dose level High, time 28 day

{"columns": ["molecule", "unitSpec", "Ht"],
 "data": [
  ["CCCCNC(=O)NS(=O)(=O)c1ccc(C)cc1 [TOLBUTAMIDE]", "%", 45],
  ["CC(=O)[C@@]1(O)CC[C@H]2[C@@H]3C=C(Cl)C4=CC(=O)CC[C@]4(C)[C@H]3CC[C@@]21C", "%", 45.5],
  ["O=C(O)c1ccccc1Nc1ccccc1", "%", 36],
  ["CC(S)C(=O)NCC(=O)O (centres undefined)", "%", 42.6]
]}

###

- Species on record: Rattus norvegicus
- experiment: Open TG-GATES - Regimen: Daily Repeat
- Assay type: toxicity, organism-based, Sprague-Dawley
- Parameters: regimen Daily Repeat, gender Male, age 6 weeks
- cond: in vivo, po, 1000 mg/kg, […], tissue Plasma, route gavage, dose level High, time 14 day
measurementType: Cl

{"columns": ["compound", "measuredValue"],
 "data": [
  ["CC(=O)[C@@]1(O)CC[C@H]2[C@@H]3C=C(Cl)C4=CC(=O)CC[C@]4(C)[C@H]3CC[C@@]21C", "107.6 meq/L"],
  ["O=C(O)c1ccccc1Nc1ccccc1", "105.7 meq/L"],
  ["CCCCNC(=O)NS(=O)(=O)c1ccc(C)cc1 [TOLBUTAMIDE]", "104.6 meq/L"],
  ["CC(S)C(=O)NCC(=O)O (centres undefined)", "105 meq/L"]
]}

###

- Organism: Rattus norvegicus
- experiment: Open TG-GATES - Regimen: Daily Repeat
- Type: toxicity, organism-based, Sprague-Dawley
- Parameters: regimen Daily Repeat, gender Male, age 6 weeks
- cond: in vivo, po, 100 mg/kg, […], tissue Plasma, route gavage, dose level Low, time 28 day

{"columns": ["compound", "unitSpec", "AST"],
 "data": [
  ["O=C(O)c1ccccc1Nc1ccccc1", "IU/L", 59.2],
  ["CC(=O)[C@@]1(O)CC[C@H]2[C@@H]3C=C(Cl)C4=CC(=O)CC[C@]4(C)[C@H]3CC[C@@]21C", "IU/L", 66.6],
  ["CCCCNC(=O)NS(=O)(=O)c1ccc(C)cc1 [TOLBUTAMIDE]", "IU/L", 63.8],
  ["CC(S)C(=O)NCC(=O)O (centres undefined)", "IU/L", 58.2]
]}

###

- Species: Rattus norvegicus
- experiment: Open TG-GATES - Regimen: Daily Repeat
- Assay type: toxicity, organism-based, Sprague-Dawley
- Set-up: regimen Daily Repeat, gender Male, age 6 weeks
- cond: in vivo, po, 0 mg/kg, […], tissue Blood, route gavage, dose level Control, time 28 day
# Lookup of reported Eos keyed by entry

{"columns": ["compound", "Eos (%)"],
 "data": [
  ["NS(=O)(=O)c1cc(C(=O)O)c(NCc2ccco2)cc1Cl [FUROSEMIDE]", 1.2],
  ["CN(C/C=C/C#CC(C)(C)C)Cc1cccc2ccccc12", 1.2],
  ["COc1ccc([C@@H]2Sc3ccccc3N(CCN(C)C)C(=O)[C@@H]2OC(C)=O)cc1", 1],
  ["CCN(CC)C(=S)SSC(=S)N(CC)CC", 1.2],
  ["Nc1ccc(Cc2ccc(N)cc2)cc1", 0.8],
  ["CCO", 1.6],
  ["CC(=O)[C@@]1(O)CC[C@H]2[C@@H]3C=C(Cl)C4=CC(=O)CC[C@]4(C)[C@H]3CC[C@@]21C", 0.8],
  ["CCCCC1C(=O)N(c2ccccc2)N(c2ccccc2)C1=O", 1],
  ["CN(CCOc1ccc(CC2SC(=O)NC2=O)cc1)c1ccccn1.O=C(O)/C=C\\C(=O)O (stereo not given) [ROSIGLITAZONE MALEATE]", 1],
  ["CCCCNC(=O)NS(=O)(=O)c1ccc(C)cc1 [TOLBUTAMIDE]", 1]
]}
